Below: a set of entries, each annotated with reported growth.
test system: NCI/ADR-RES ovarian; test: NCI-60 one-dose screen, 48 h (100 = growth as untreated, 0 = no growth, -100 = all killed); conditions: 10 µM unless noted
About 83,000 compounds went through this panel and 20% of them were active in at least one assay; those are over-represented in the sample as a whole.
Output spec: scalar in %, unitless text.

Worked cases, answers included:
compound | measured_result
CCCc1c(C)c2sc(=O)[nH]c2[nH]c1=O | 105
COc1cc(OC)cc(N2C(=O)N(Cc3ccc(C(C)(C)C)cc3)c3ccccc3S2(=O)=O)c1 | 73.2

Look up growth: CCOC(=O)C1=C(C)c2ccc(OC)c(OC)c2C1
101

Entry CCN1C(=O)N(c2ccccc2)C2Nn3c(s/c(=C4\C(=O)N(C(C)C)c5ccccc54)c3=O)=NC21 (stereo not given) please
109

Entry CCCCC1CCc2cccc3c(SCC(=O)N(C)c4ccc(Cl)cc4)cc[n+]1c23 (stereo not given) please
110

* * *

test system: NCI-H522 lung; assay: NCI-60 one-dose screen, 48 h; details: 10 µM unless noted
About 83,000 compounds went through this panel and 20% of them were active in at least one assay; those are over-represented in the sample as a whole. Active and inactive are the calls of the source. The calls were made as follows: active = growth percent below 10; inactive = the rest.
I would appreciate it if you answered using one of these outcomes: active, inactive

Check out these entries, answers already filled in.
molecule | group_label
Cc1ccc2cc3c(N)c4c(C)ccc(C)c4nc3nc2c1 | active
NCCOc1ncccc1/C=C1\c2ccccc2-c2ccc([N+](=O)[O-])cc21 | active
O=C(Nc1ccc(F)cc1F)c1cc(Cl)ccc1O | active

What did the test return for CCn1c(-c2nonc2Nc2ccc(OC)cc2)nc2ccccc21 ?
inactive

Entry O=S1(=O)N(Cc2ccccc2)[C@@H](Cc2ccccc2)[C@H](O)[C@H](O)[C@H](Cc2ccccc2)N1Cc1ccccc1 please
active

Entry N#Cc1c(N)nc2c(c1N)C(c1ccc(F)cc1)c1ccc(N)cc1O2 (stereo not drawn) please
inactive

Entry CC(=O)Nc1nc2c(s1)CCc1c-2cn(S(=O)(=O)c2ccccc2)c1-c1ccccc1 please
inactive

Entry COc1cc(-c2c3c(c(Br)n2Cc2ccccc2)-c2nc(N)sc2CC3)cc(OC)c1OC please
inactive

Entry CN(O)c1nc(N(C)O)nc(N2CCOCC2)n1 please
inactive

Entry CCOc1cccc(/C=N\Nc2nc(=O)cc(C(=O)OC)s2)c1O please
inactive

Entry CCOC(=O)C1=C(C)c2ccc(OC)c(OC)c2C1 please
inactive

Entry CC1(C)CC2(C)OC2C2(C1)N=NC(=Nc1ccccc1)O2 (stereo not drawn) please
inactive

Entry COc1ccc(CCN2C(=O)CCSC2=S)cc1OC please
inactive

Entry O=c1cc(NC2CCN(CCCc3ccccc3)CC2)c2cc(Cl)ccc2o1 please
active

Entry COc1ccc(Cn2c(Br)c3c(c2Br)-c2nc(N)sc2CC3)cc1 please
active

Entry CN1C(=O)N(C)C2Nn3c(s/c(=C\c4ccc(Cl)cc4Cl)c3=O)=NC21 (stereo not drawn) please
inactive

Entry CN1C(=O)N(C)C2C1NN=c1s/c(=C\c3ccc(Cl)cc3Cl)c(=O)n12 (stereo not drawn) please
inactive

Entry O=C(c1ccccc1)N(C(=S)NCCc1ccc(Cl)cc1)c1ccccc1 please
inactive

Entry C[C@@H](C(=O)NCCCC#Cc1cnc(Nc2ccc(C#N)cc2)nc1NC1CC1)N(C)C(=O)/C=C/CN(C)C please
inactive

Entry COc1ccc(CCN2C(=O)/C(=C/c3ccc(C4Oc5ccccc5C5CC(c6cccc(OC)c6)=NN54)cc3)SC2=S)cc1 (stereo not drawn) please
inactive

Entry Cc1ccc2sc3c(NCCCNCCO)nc4ccccc4c3c(=O)c2c1 please
inactive

Entry COc1cc(/C=C/C(=O)c2ccc(Cl)cc2)cc(CN2CCCCC2)c1O please
inactive

Entry O=c1oc2ccc(I)cc2c(=O)n1-c1ccc(I)cc1F please
active

Entry COc1ccc(C2=Nn3c(NN)nnc3SC2)cc1 please
inactive

Entry CC(=Nc1ccccc1)C1=C(O)C(Cc2ccc(F)cc2)NC1=O (stereo not drawn) please
active

Entry CS(=O)(=O)Nc1ccc(C(=O)NC(C(=O)NO)c2ccc(-c3cccc(F)c3)cc2)cc1 (stereo not drawn) please
inactive

Entry Cc1cccc(NC(=O)c2sc3nc4c(cc3c2N)CCCC4)c1C please
active

Entry CCOC(=O)c1sc(-c2ccc(OS(=O)(=O)c3ccc(Br)s3)c(C=O)c2)nc1C please
active

Entry COc1ccc(Cn2c(Br)c3c(c2Br)-c2nc(NC(=O)c4ccc(OC)cc4)sc2CC3)cc1 please
inactive

Entry CCCCN1CCN(c2ccc3nc(-c4ccc5nc(-c6ccc(OC)c(OC)c6)[nH]c5c4)[nH]c3c2)CC1 please
active

These entries and their values trace back to PubChem BioAssay (NCI).
